Assay: Study KAR5585-101 Part 1 (SAD): plasma pharmacokinetics after a single oral dose of KAR5585, fasting and fed (incl. dose proportionality and food effect)
Conditions: human, in vivo, po, 700 mg
PROPERTY: half-life (h)
Give a bare numeral; the unit h is implied.

Task item: Look up half-life: Nc1nc(O[C@H](c2ccc(Cl)cc2-c2ccccc2)C(F)(F)F)cc(N2CCC3(CC2)CN[C@H](C(=O)O)C3)n1 [KAR5417]
Reply: 12.1

* * *

Experiment: Study KAR5585-101 Part 1 (SAD): plasma pharmacokinetics after a single oral dose of KAR5585, fasting and fed (incl. dose proportionality and food effect)
Settings: human, plasma, po, 2000 mg, AUC0-12, KAR5417 after 2000 mg KAR5585 single oral, fasted, Cohort 6; Mean
PROPERTY: AUC(0-t) (ng·h/mL)
Give a bare numeral; the unit ng·h/mL is implied.

Task item: Look up AUC(0-t): Nc1nc(O[C@H](c2ccc(Cl)cc2-c2ccccc2)C(F)(F)F)cc(N2CCC3(CC2)CN[C@H](C(=O)O)C3)n1 [KAR5417]
Reply: 6910

* * *

Assay: Study KAR5585-101 Part 1 (SAD): plasma pharmacokinetics after a single oral dose of KAR5585, fasting and fed (incl. dose proportionality and food effect)
Details: human, plasma, po, 200 mg, Cmax, KAR5417 after 200 mg KAR5585 single oral, fasted, Cohort 2; Geo. Mean
PROPERTY: Cmax (ng/mL)
Give a bare numeral; the unit ng/mL is implied.

Task item: Look up Cmax: Nc1nc(O[C@H](c2ccc(Cl)cc2-c2ccccc2)C(F)(F)F)cc(N2CCC3(CC2)CN[C@H](C(=O)O)C3)n1 [KAR5417]
Reply: 132

* * *

Test: Study KAR5585-101 Part 1 (SAD): plasma pharmacokinetics after a single oral dose of KAR5585, fasting and fed (incl. dose proportionality and food effect)
Settings: human, plasma, po, 200 mg, AUC0-12, KAR5417 after 200 mg KAR5585 single oral, fasted, Cohort 2; Geo. Mean
PROPERTY: AUC(0-t) (ng·h/mL)
Give a bare numeral; the unit ng·h/mL is implied.

Task item: Look up AUC(0-t): `Nc1nc(O[C@H](c2ccc(Cl)cc2-c2ccccc2)C(F)(F)F)cc(N2CCC3(CC2)CN[C@H](C(=O)O)C3)n1`
Reply: 771

* * *

Test: Study KAR5585-101 Part 1 (SAD): plasma pharmacokinetics after a single oral dose of KAR5585, fasting and fed (incl. dose proportionality and food effect)
Conditions: human, plasma, po, 700 mg, AUC0-∞, 700 mg KAR5585 single oral, fasted, Cohort 4; Geo. Mean
PROPERTY: AUC(0-inf) (ng·h/mL)
Give a bare numeral; the unit ng·h/mL is implied.

Task item: Look up AUC(0-inf): CCOC(=O)[C@@H]1CC2(CCN(c3cc(O[C@H](c4ccc(Cl)cc4-c4ccccc4)C(F)(F)F)nc(N)n3)CC2)CN1 [KAR5585]
Reply: 412

* * *

Test: clinical
Conditions: human, plasma, oral, 100 mg/dose
PROPERTY: AUC(0-inf)
State the result as a value with its unit after it.

Task item: Look up AUC(0-inf): `CCOC(=O)[C@@H]1CC2(CCN(c3cc(O[C@H](c4ccc(Cl)cc4-c4ccccc4)C(F)(F)F)nc(N)n3)CC2)CN1`
Reply: 54.1 ng·h/mL
